Target: hPPARα (Homo sapiens, UniProt Q07869)
Construct: fragments of DNA amplified by PCR corresponding to the DEF domains of the human PPARα, PPARγ PPARδ nuclear receptors; expressed in transfected cells; host or cells: COS-7 (monkey kidney fibroblast line)
Sequence (Q07869 239-466 limits assumed): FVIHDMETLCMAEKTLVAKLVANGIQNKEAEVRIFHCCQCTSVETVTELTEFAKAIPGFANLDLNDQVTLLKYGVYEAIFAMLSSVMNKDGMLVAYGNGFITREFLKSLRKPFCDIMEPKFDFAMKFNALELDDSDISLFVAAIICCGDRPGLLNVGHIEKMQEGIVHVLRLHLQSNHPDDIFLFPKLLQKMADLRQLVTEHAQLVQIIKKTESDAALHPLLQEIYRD
Test: Gal4-hPPARα chimera transactivation in COS-7 cells (luciferase)
Type: cell-based
Details: induction factor standardised to an internal reference, read-out: % hGal4-PPAR transactivation (10 μM) alpha
For each record, write down the corresponding activation at 10 µM.
Give your result in % as a bare value.

[in] Please give the measured activation at 10 µM for this molecule: CC(C)(Oc1ccc(CC(=O)NC(Cc2ccccc2)c2ccccc2N2CCCCC2)cc1)C(=O)O (stereo not shown) [Compound 7]
[out] 40

[in] Need activation at 10 µM, item CC(C)CC(NC(=O)Cc1ccc(OCCCC(C)(C)C(=O)O)cc1)c1ccccc1N1CCCCC1 (stereo not shown) [Compound 28]
[out] 35

[in] Please give the measured activation at 10 µM for this molecule: CCCCC(NC(=O)Cc1ccc(OC(C)(C)C(=O)O)cc1)c1ccccc1N1CCCCC1 (stereo not shown) [Compound 10]
[out] 11

[in] Name the reported activation at 10 µM value associated with the molecule CCCCC(NC(=O)Cc1ccc(OC(C)(C)C(=O)NS(=O)(=O)C(F)(F)F)cc1)c1ccccc1N1CCCCC1 (stereo not shown) [Compound 60]
[out] 46

[in] Look up activation at 10 µM: CCCCC(NC(=O)Cc1ccc(OC(C)(C)C(=O)O)cc1)c1cccc(F)c1N1CCCCC1 (stereo not shown) [Compound 45]
[out] 31

[in] May I ask what activation at 10 µM has been recorded for CCCCC(NC(=O)Cc1ccc(OCCCC(Cl)(Cl)C(=O)O)cc1)c1ccccc1N1CCCCC1 (stereo not shown) [Compound 47] ?
[out] 42

[in] Query: activation at 10 µM; subject: CCCCC(NC(=O)Cc1ccc(OC(C)(C)C(=O)NS(=O)(=O)c2ccccc2)cc1)c1ccccc1N1CCCCC1 (stereo not shown) [Compound 61]
[out] 20

[in] Fill in: activation at 10 µM of CC(C)CC(NC(=O)Cc1ccc(OCCCCOc2ccc(OC(C)(C)C(=O)O)cc2)cc1)c1ccccc1N1CCCCC1 (stereo not shown) [Compound 40] is ___
[out] 20

[in] Find the recorded activation at 10 µM belonging to CC(C)CC(NC(=O)Cc1ccc(OC(C)(C)C(=O)NS(=O)(=O)C(F)(F)F)cc1)c1ccccc1N1CCCCC1 (stereo not shown) [Compound 59] and report it.
[out] 22

[in] Using the record for CCCCC(NC(=O)Cc1ccc(OC(C)(C)C(=O)NS(C)(=O)=O)cc1)c1ccccc1N1CCCCC1 (stereo not shown) [Compound 52] , report its activation at 10 µM.
[out] 42

----------
Biological target: hPPARγ (Homo sapiens)
Construct: fragments of DNA amplified by PCR corresponding to the DEF domains of the human PPARα, PPARγ PPARδ nuclear receptors; expressed in transfected cells; host or cells: COS-7 (monkey kidney fibroblast line)
Sequence (P37231 238-503 limits assumed): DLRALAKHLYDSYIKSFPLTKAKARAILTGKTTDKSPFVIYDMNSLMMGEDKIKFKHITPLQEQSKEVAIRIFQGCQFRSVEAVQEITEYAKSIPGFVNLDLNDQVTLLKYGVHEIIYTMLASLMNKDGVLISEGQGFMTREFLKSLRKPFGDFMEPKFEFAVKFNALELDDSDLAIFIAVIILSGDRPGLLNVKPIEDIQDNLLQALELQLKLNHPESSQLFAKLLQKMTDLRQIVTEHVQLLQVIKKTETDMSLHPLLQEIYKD
Assay: Gal4-hPPARγ chimera transactivation in COS-7 cells (luciferase)
Assay type: cell-based
Conditions: induction factor standardised to an internal reference, read-out: % hGal4-PPAR transactivation (10 μM) gamma
parameter-measured: activation at 10 µM

[in] GET /values?readout=activation at 10 µM&item= CCCC(NC(=O)Cc1ccc(OC(C)(C)C(=O)NS(C)(=O)=O)cc1)c1ccccc1N1CCCCC1 (stereo not drawn)
[out] < 10%

[in] Recorded activation at 10 µM for CCCCC(NC(=O)Cc1ccc(OC(C)(C)C(=O)NS(C)(=O)=O)cc1)c1ccccc1N1CCCCC1 (stereo not drawn) , please?
[out] < 10%

[in] Recorded activation at 10 µM for CCCCC(NC(=O)Cc1ccc(OCCCC(Cl)(Cl)C(=O)O)cc1)c1ccccc1N1CCCCC1 (stereo not drawn) , please?
[out] < 10%

[in] // lookup activation at 10 µM for CC(C)(Oc1ccc(CC(=O)NC(CC2CCCCC2)c2ccccc2N2CCCCC2)cc1)C(=O)O (stereo not drawn)
[out] 95%

[in] For the molecule CCCCC(NC(=O)Cc1ccc(OC(C)(C)C(=O)NS(=O)(=O)c2ccccc2)cc1)c1ccccc1N1CCCCC1 (stereo not drawn) , what activation at 10 µM is on record?
[out] < 10%

[in] // query activation at 10 µM value for entry CCCCC(NC(=O)Cc1ccc(OC(C)(C)C(=O)NS(=O)(=O)Cc2ccccc2)cc1)c1ccccc1N1CCCCC1 (stereo not drawn)
[out] < 10%

[in] What activation at 10 µM value was documented for this molecule, CCCCC(NC(=O)Cc1ccc(OC(C)(C)C(=O)O)cc1)c1ccc(-n2ccc3ccccc32)cc1N1CCCCC1 (stereo not drawn) ?
[out] < 10%

[in] Quick check: activation at 10 µM of CCCCC(NC(=O)Cc1ccc(OC(C)(C)C(=O)NS(C)(=O)=O)cc1)c1ccccc1OC (stereo not drawn) ?
[out] < 10%

[in] Endpoint output: activation at 10 µM of CC(NC(=O)Cc1ccc(OC(C)(C)C(=O)O)cc1)c1ccccc1N1CCCCCC1 (stereo not drawn) . Value?
[out] 42%

[in] Record request: activation at 10 µM value, item CCCCC(NC(=O)Cc1ccc(OC(C)(C)C(=O)O)cc1)c1cccc(F)c1N1CCCCC1 (stereo not drawn)
[out] 62%

[in] // query activation at 10 µM value for entry CC(C)CC(NC(=O)Cc1ccc(OC(C)(C)C(=O)O)cc1)c1ccc(-c2ccccc2)cc1N1CCCCC1 (stereo not drawn)
[out] 29%

[in] State the recorded activation at 10 µM for this entry: CC(C)CC(NC(=O)Cc1ccc(OCCCCC(C)(C)C(=O)O)cc1)c1ccccc1N1CCCCC1 (stereo not drawn)
[out] < 10%

All figures here come from patent US20060079696A1.
